Reference source: the Immune Epitope Database (IEDB)

# Tested Target: HLA-A*11:01
# Experiment Summary: IEDB peptide-MHC binding, purified MHC/competitive/radioactivity; filed as Kd, often an IC50 or EC50 that approximates it; bounds were set here for any values at or beyond the usual limits of such assays
# Condition Details: source organism: Vaccinia virus WR
Property: Kd

Sample records with Kd:
QITTDDLVK ... 803 nM
KSINKVYGRY ... 1190 nM
LLIWAYLSKK ... 124 nM

Per the records, this sequence ( VSMTYLYNKY ) has Kd equal to 96.5 nM

Please fill in: Kd reported for STDNAVYQCR = 35.4 nM

Entry under test: SMTIREFPR . Its Kd was 599 nM

The sequence listed as NVTSMEELAR shows Kd equal to 227 nM

The recorded Kd for entry STCSAVTDR equals 31.2 nM

Entry DSIKDVIHDY — recorded Kd = 5140 nM

Sample KSVTKSSSWK ; Kd observed: 13.8 nM

For LSARNKLFKR the sequence record lists Kd as 2680 nM

Please fill in: Kd reported for ASKTINALVY = 1010 nM

Given item WVSLKKTNDK , the value recorded as its Kd is 608 nM

Per the record, RLSILSKDK has Kd of 1210 nM

get_value(item= TISKDNLER , readout=Kd) returns 170 nM

The sequence listed as PADCFLVKLK has a reported Kd of 1510 nM

Reported Kd of YIVHSYLKNY : ≥ 69800 nM

So, KSISSMTIR ? Its Kd was 281 nM

For record WIQYDKHCY the listed Kd is 39.5 nM

// FIDRGSIKIK : Kd value = 708 nM

Kindly note the recorded Kd for LSKRERQLAK , which is 1120 nM

Lab note: DARYCSEFIR gave Kd of ≥ 37200 nM

Quick note, Kd for VAALDGTFQR landed at 681 nM

Value of Kd reported for the sequence MFLTSVINR is 283 nM

The sequence identified as SMGFKVTTRR registered its Kd at 1050 nM

Lab book: Kd of RTMPNESRVK noted as 4.57 nM

Briefly, Kd measured for VIGLSGDSER : 15900 nM

Entry KTNDINVRRR , Kd reported as 1460 nM

====

# pKd annotations
# Tested Target: HLA-A*11:01
# Experiment Summary: IEDB peptide-MHC binding, purified MHC/competitive/radioactivity; filed as Kd, often an IC50 or EC50 that approximates it; bounds were set here for any values at or beyond the usual limits of such assays
# Condition Details: source organism: Vaccinia virus WR
Remember, pKd is on a log scale: it is -log10 of the molar concentration.

Examples from the recorded data:
TFKIDAVRYY ... 4.92
SSSIDVDKR ... 5.32
NTIDKSSPLY ... 5.78
SVLCVKKFYK ... 9.52

pKd in this record for KSPLPSLEY : 6.64

====

# Tested Target: HLA-A*11:01
# Experiment Summary: IEDB peptide-MHC binding, purified MHC/competitive/radioactivity; filed as Kd, often an IC50 or EC50 that approximates it; bounds were set here for any values at or beyond the usual limits of such assays
# Condition Details: source organism: Vaccinia virus WR
pKd: −log10 of the molar value.
Property: pKd

Record excerpt, results attached:
FTQHLLNIR ... ≤ 4.11
LVVISVIFY ... ≤ 4.44

Now, please, on to the next sequence.
Observed pKd on HLA-A*11:01, entry MSTYSDICSK , equals ≤ 4.16
